target: DLG1_3, Q12959; test: holdup assay; design: key: below the threshold = too weak to quantify, mostly under pKd 3.1 to 4; conditions: plain residues with an end cap or a label only (N-terminal biotin on a linker: ado-ado)
Sequence (Q12959 457-571): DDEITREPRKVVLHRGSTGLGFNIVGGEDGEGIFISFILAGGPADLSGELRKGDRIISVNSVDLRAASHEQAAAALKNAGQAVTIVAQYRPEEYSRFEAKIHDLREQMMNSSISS
METRIC: pKd

binder="GTGYDRKDYV [CLDN3, O15551]" metric=pKd test_value=3.67
binder="VKRNSKETVV [MARCHF3, Q86UD3]" metric=pKd test_value=4.32
binder="NISYRRESAI [KCNJ4, P48050]" metric=pKd test_value=3.91

From: paper PMC9482650
